Numbers sourced from ChEMBL document CHEMBL3885861.

Species: Rattus norvegicus
PROTOCOL_DESCRIPTION: Open TG-GATES - Regimen: Daily Repeat
Assay type: toxicity, organism-based, Sprague-Dawley
Design: regimen Daily Repeat, gender Male, age 6 weeks
CONDITION_INFO: in vivo, po, 300 mg/kg, […], tissue Plasma, route gavage, dose level Middle, time 14 day
ENDPOINT_NAME: RALB (g/dL)
Lab book: enter the figure in g/dL, no units written.

Solved entries:
CCOC(=O)CCC(=O)O[C@H]1[C@H](O[C@@H]2[C@@H](C)[C@H](O[C@H]3C[C@@](C)(OC)[C@@H](O)[C@H](C)O3)[C@@H](C)C(=O)O[C@H](CC)[C@@](C)(O)[C@H](O)[C@@H](C)C(=O)[C@H](C)C[C@@]2(C)O)O[C@H](C)C[C@@H]1N(C)C [ERYTHROMYCIN ETHYLSUCCINATE] = 2.9
COc1ccc2[nH]c([S+]([O-])Cc3ncc(C)c(OC)c3C)nc2c1 (stereo not given) = 3.6
NC(N)=Nc1nc(CSCCC(N)=NS(N)(=O)=O)cs1 = 3.5

Suppose we examine the molecule CCOc1ccc(NC(=O)CC(C)O)cc1 (stereo not given) ; what RALB value has been reported?
2.8

Can you share its RALB? I mean this molecule: COC1=CC(=O)C[C@@H](C)[C@]12Oc1c(Cl)c(OC)cc(OC)c1C2=O
3.5

* * *

# reported KIDNEY_R; entries follow
Species: Rattus norvegicus
PROTOCOL_DESCRIPTION: Open TG-GATES - Regimen: Single
Type: toxicity, organism-based, Sprague-Dawley
Set-up: regimen Single, gender Male, age 6 weeks
CONDITION_INFO: in vivo, po, 100 mg/kg, 24 h, tissue Kidney, route gavage, dose level Low
Number only, in g; omit the unit.

Sample answers from the record:
COC1=CC(=O)C[C@@H](C)[C@]12Oc1c(Cl)c(OC)cc(OC)c1C2=O = 1
COc1ccc2[nH]c([S+]([O-])Cc3ncc(C)c(OC)c3C)nc2c1 (centres undefined) = 1.1

Form field: reported KIDNEY_R of NC(N)=Nc1nc(CSCCC(N)=NS(N)(=O)=O)cs1
1

If you can, please state the reported KIDNEY_R value of CCOC(=O)CCC(=O)O[C@H]1[C@H](O[C@@H]2[C@@H](C)[C@H](O[C@H]3C[C@@](C)(OC)[C@@H](O)[C@H](C)O3)[C@@H](C)C(=O)O[C@H](CC)[C@@](C)(O)[C@H](O)[C@@H](C)C(=O)[C@H](C)C[C@@]2(C)O)O[C@H](C)C[C@@H]1N(C)C [ERYTHROMYCIN ETHYLSUCCINATE] .
1

* * *

Organism: Rattus norvegicus
PROTOCOL_DESCRIPTION: Open TG-GATES - Regimen: Single
Type: toxicity, organism-based, Sprague-Dawley
Parameters: regimen Single, gender Male, age 6 weeks
CONDITION_INFO: in vivo, po, 300 mg/kg, 9 h, tissue Plasma, route gavage, dose level Middle
ENDPOINT_NAME: ALP (IU/L)
Give the number; IU/L is assumed, so skip it.

COc1ccc2[nH]c([S+]([O-])Cc3ncc(C)c(OC)c3C)nc2c1 (centres undefined) = 761.6
NC(N)=Nc1nc(CSCCC(N)=NS(N)(=O)=O)cs1 = 898

# query: ALP of entry CCOC(=O)CCC(=O)O[C@H]1[C@H](O[C@@H]2[C@@H](C)[C@H](O[C@H]3C[C@@](C)(OC)[C@@H](O)[C@H](C)O3)[C@@H](C)C(=O)O[C@H](CC)[C@@](C)(O)[C@H](O)[C@@H](C)C(=O)[C@H](C)C[C@@]2(C)O)O[C@H](C)C[C@@H]1N(C)C [ERYTHROMYCIN ETHYLSUCCINATE]
1386.8

State the recorded ALP for this entry: COC1=CC(=O)C[C@@H](C)[C@]12Oc1c(Cl)c(OC)cc(OC)c1C2=O
1051.6
